Origin of measurements: ChEMBL document CHEMBL3507680

assay_text: Human HepG2 cell viability assay in 384 well format
Format: toxicity, cell-based
Design: dose 125 nL, time 70.5 hour; concentration not given beside the values
condition_parameters: HepG2 cells, read-out: Inhibition
Recorded cytotoxicity at 70.5 h for the following compounds
quantity_kind: cytotoxicity at 70.5 h (%)

> print(dat)
                                    compound           quantity.kind  readout.value
 1  Cc1cccc(CN2CCC3(CCC(CC(=O)N(C)C)CC3)CC2)n1  cytotoxicity at 70.5 h          -8.22
 2  O=C(c1cccnc1)N1CCCC(Cc2nccs2)C1 (stereo not drawn)  cytotoxicity at 70.5 h          -6.74
 3  Cn1nccc1CCC(=O)N1CCCC(c2cnccn2)C1 (stereo not drawn)  cytotoxicity at 70.5 h           12.9
 4  O=C(CN1CCCCC1Cn1cccn1)NC1CCN(C2CC2)CC1 (stereo not drawn)  cytotoxicity at 70.5 h          -7.07
 5         O=C(CCc1ccncc1)NCCOc1ncc(Cl)cc1Cl  cytotoxicity at 70.5 h          -6.13
 6  Cc1cc(-c2nn(C)c(Cl)c2CN2CCOCC2CC(=O)O)no1 (stereo not drawn)  cytotoxicity at 70.5 h          -7.35
 7  O=C(NC1CCCN(c2ccc(OC(F)F)cc2)C1)c1cnccn1 (stereo not drawn)  cytotoxicity at 70.5 h          -6.56
 8   O=C(c1ccccc1)N1CCCN(C(=O)c2ncncc2Cl)CC1  cytotoxicity at 70.5 h           15.9
 9  CC(C)(C)CN(CCO)C(=O)Nc1cccc(N2CCNC2=O)c1  cytotoxicity at 70.5 h          -4.71
10    Cc1ccc(NC2CCN(C(=O)Cc3csc(C)n3)CC2)nn1  cytotoxicity at 70.5 h          -9.75
11            O=C(Nc1nccs1)c1csc(NC2CCCC2)n1  cytotoxicity at 70.5 h             62
12  O=C1NC2(CCN(C(=O)CN3CCOCC3)CC2)Nc2ccc(Cl)cc21  cytotoxicity at 70.5 h          -2.29
13   CCOCn1cc(NC(=O)C2CCN(S(C)(=O)=O)CC2)cn1  cytotoxicity at 70.5 h          -2.16
14  O=C(c1ccsc1)N1CCc2c(nc(-c3ccncc3)[nH]c2=O)C1  cytotoxicity at 70.5 h          -6.38
15  N#Cc1ccsc1N1CCC(Sc2ncc[nH]2)C1=O (stereo not drawn)  cytotoxicity at 70.5 h          -7.58
16  CN(Cc1ccsc1)C(=O)Cn1c(CS(C)(=O)=O)nc2ccccc21  cytotoxicity at 70.5 h           -1.3
17   CN(C)c1cc(NCc2cnc3n2CCN(CC2CC2)CC3)ncn1  cytotoxicity at 70.5 h           2.24
18  Cc1csc([C@@H]2C[C@@H]3CCN(C(=O)c4cc(C)on4)C[C@H]3O2)n1  cytotoxicity at 70.5 h          -1.08
19  COc1ccc(C(=O)N2C[C@@H](C(=O)O)[C@H](c3ccccc3C)C2)c(O)c1  cytotoxicity at 70.5 h          -6.81
20  O=C(O)[C@]12CCCN(CC3CCOC3)C[C@H]1CN(c1ncccn1)C2 (stereo partly drawn)  cytotoxicity at 70.5 h          -5.74
21  CN(Cc1cnn(C)c1)CC(O)c1ccc2c(c1)OCCCO2 (stereo not drawn)  cytotoxicity at 70.5 h           17.4
22       O=C(O)C1(Oc2ccccc2)CCN(c2ccncc2)CC1  cytotoxicity at 70.5 h          -2.23
23  CC(NCc1ccc(C(C)(C)C)cc1)c1ccc(S(C)(=O)=O)cc1 (stereo not drawn)  cytotoxicity at 70.5 h          -8.09
